The origin of these recorded values is PubChem BioAssay.

Molecular target: Sentrin-specific protease 7 (Homo sapiens)
Assay: SENP7 protease inhibitors, retest, confirmation, biochemical, luminescence, single concentration (AID 488917)
Conditions: recombinant SENP7, Z-RLRGG-aminoluciferin luminescence, 40 min; at 12.5 µM; active compounds read high
Some of the results follow.
MEASUREMENT TYPE: inhibition (%)
Just the number please, in %, no unit attached.

Recorded inhibition, per entry:
> print(dat)
                               given.smiles  unit.string  value
1          Cc1cccc(NC(=O)COc2ccc(Br)cc2C)n1            %    7.4
2               Nc1ccccc1/C=N\N=C/c1ccccc1N            %   85.6
3  COc1ccc(-n2ncc3c(SCC(=O)NNC(C)=O)ncnc32)cc1            %   11.2
4          O=C(Nc1nnc(SCc2ccccc2)s1)c1ccco1            %   23.6
5     O=C(Nc1ccccc1)Nc1ccccc1C(=O)NCc1ccco1            %   85.6

Next item in the queue.
inhibition recorded for this molecule, "CC(=O)Oc1ccc2c(c1)C(=O)c1ccccc1C2=O" , is 67.4
